# Test system: Zymoseptoria tritici (SEPTTR-184)
# METHOD: Efficacy of target gene fragments (MgCytB dsRNA tiles) on wheat plants, SEPTTR-184
# Format: in vivo
# CONDITION INFO: 1DP (preventative); sum over 200, 50, 12.5, 3.125 ppm
QUANTITY: Sum of Disease Control SEPTTR-184 1DP (%)
Just the number in %, nothing appended.

Asked: Please give the measured Sum of Disease Control SEPTTR-184 1DP for this molecule: MgCytB-T7: 221 bp dsRNA of Zymoseptoria CytB region T7, location 947-1167 (SEQ ID NO:10) (nucleic acid, listed as Zymoseptoria tritici, complementary strand of dsRNA) GATTACAGTTTAGACCTTTAAGCAAGATCACATTTTACATATTTGTTGCTAACTTCTTAGTATTAATGCAATTAGGTGCTAATCACGTTGAGTCACCATTTATAGAATTTGGGCAAATTAGTACAGTACTGTACTTTTCACATTTCTTAATCATAGTGCCTCTAGTAAGCTTAATCGAGAATACTTTAGTGGATATGCACTTAAACAACACAATAACGTAA
Given back: 275
